assay: endothelial E-selectin expression blockers – imaging, HUVEC, immunofluorescence, MLSMR starter and 10KST1 sets, primary screen (AID 487); details: HUVEC TNFalpha-induced E-selectin immunofluorescence imaging, at 2 µM; stronger effect = higher value;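 also: signal is fraction of cell area covered by stained E-selectin grains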
Where a SMILES comes first, the peptide text is derived from it. The star is where a group is joined. Boc = CC(C)(C)OC(=O)*
Param threshold (-20%) applies to inhibition; output condition met when value >= threshold, condition not met when value < threshold.

Illustrative cases are given below, each with its answer.
{"columns": ["compound", "classification"],
 "data": [
  ["CC(C)(C)C1=C[C@@H](CO)C[C@@H](CO)C1", "condition not met"],
  ["CCOC(=O)Nc1c(C(=O)OC)[nH]c2cccc(OC)c12", "condition not met"],
  ["CC(C)(C)OC(=O)N1CCCC1C(=O)N1CCCC1C(=O)N1CCCC1C(=O)O (stereo not drawn) (Boc-Pro-Pro-Pro-OH; configuration not given here)", "condition not met"],
  ["CCOC(=O)CN(C)Cc1c[nH]c2ccccc12", "condition met"],
  ["O=C(O)c1ccc(COCC(F)(F)C(F)F)o1", "condition not met"],
  ["COc1ccc(OC)c(S(=O)(=O)Nc2ccc(C(N)=O)cc2)c1", "condition not met"],
  ["Cc1cccc2cc(C(c3nnnn3C(C)(C)C)N3CCN(C(=O)c4ccco4)CC3)c(=O)[nH]c12 (centres undefined)", "condition not met"],
  ["COc1ccc(Cn2c(=O)[nH]c3cc(C(=O)NCCCN4CCCC4)ccc3c2=O)cc1", "condition met"]
]}

QUERY: Would you say O=C(c1noc2c1CCc1ccccc1-2)N1CCOCC1 shows inhibition at minimum -20%?
RESULT: condition not met

QUERY: Would you say COCC(=O)Nc1sc2c(c1C(=O)OC)C(C(=O)OC)CC2 (centres undefined) shows inhibition at minimum -20%?
RESULT: condition met

QUERY: Would you say O=C1c2oc3ccccc3c(=O)c2C(c2ccccn2)N1Cc1ccccc1 (centres undefined) shows inhibition at minimum -20%?
RESULT: condition not met

QUERY: Would you say COc1ccccc1OC(=O)c1ccc(SC)cc1OC shows inhibition at minimum -20%?
RESULT: condition met

QUERY: Would you say CCCCn1nnnc1SCC(=O)N1CCN(C(=O)c2ccco2)CC1 shows inhibition at minimum -20%?
RESULT: condition met

QUERY: Would you say Cc1cc(NCCCn2ccnc2)n2c(nc3ccccc32)c1C#N shows inhibition at minimum -20%?
RESULT: condition met

QUERY: Would you say COc1ccc(Cn2ccnc2)cc1Br shows inhibition at minimum -20%?
RESULT: condition not met

QUERY: Would you say CCCC(=O)Nc1ccc(OCC(=O)OC)cc1 shows inhibition at minimum -20%?
RESULT: condition met

QUERY: Would you say CCOC(=O)C(C)On1c(SC(C)C(=O)OCC)nc2ccccc2c1=O (centres undefined) shows inhibition at minimum -20%?
RESULT: condition not met

QUERY: Would you say COc1ccc(CCN(C)CCCC(C#N)(c2ccc(OC)c(OC)c2)C(C)C)cc1OC (centres undefined) shows inhibition at minimum -20%?
RESULT: condition not met

QUERY: Would you say Cn1c(=O)c2c(ncn2CC(O)CNc2ccc(Cl)cc2)n(C)c1=O (centres undefined) shows inhibition at minimum -20%?
RESULT: condition not met

QUERY: Would you say O=C(CN1CCOCC1)N1CCN(C(=O)CN2CCOCC2)CC1 shows inhibition at minimum -20%?
RESULT: condition not met

QUERY: Would you say Cc1ccc(CNC(=O)C2CCCN(S(=O)(=O)c3cccnc3)C2)cc1 (centres undefined) shows inhibition at minimum -20%?
RESULT: condition not met

QUERY: Would you say CC(C)(C)NC(=O)Nc1ccccc1C(N)=O shows inhibition at minimum -20%?
RESULT: condition not met

----------
assay: TLR3 IRF3 reporter activation blockers – cell-based, poly I:C stimulus, luciferase, 10K MLSCN set, primary screen (AID 602277); details: HEK293-TLR3 RL24 IRF3 luciferase reporter, at 10 µM
Calls of active or inactive are those of the source.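 Rule for the calls: active = inhibition of the reporter signal at or above 50%; inactive = inhibition below 50%.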
Hi there, use one of these labels in your reply, thanks! active, inactive

Illustrative cases are given below, each with its answer.
{"columns": ["compound", "classification"],
 "data": [
  ["COc1ccc(C2NC(c3ccc(OC)c(OC)c3OC)C(C)C(=O)C2C)c(OC)c1OC (centres undefined)", "inactive"],
  ["CCOc1ccc(N(C)S(=O)(=O)c2ccc3[nH]cc(C(=O)NCC4CCCO4)c(=O)c3c2)cc1 (centres undefined)", "inactive"],
  ["O=C(C1CCN(S(=O)(=O)c2cnc[nH]2)CC1)N1CCN(c2ncccn2)CC1", "active"],
  ["CS(=O)(=O)Nc1ccc(C(=O)NCc2ccco2)cc1", "inactive"],
  ["CCOC(=O)CSc1nc2ccccc2c(=O)n1NC(=O)c1ccccc1", "inactive"]
]}

Turning now to a further compound:
QUERY: What classification did CCOCCCNC(=O)CCNS(=O)(=O)c1ccc(C)cc1 end up with in this test?
RESULT: inactive

----------
cell count listing for selected compounds.
assay: inhibitors of TNFa-induced NFkB p65 translocation, primary screen, imaging, HUVEC, MLSMR starter and 10KST1 sets (AID 438); settings: HUVEC TNFa-induced p65 nuclear translocation; measured here: nuclei count (cytotoxicity indicator), at 2.08 µM;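 also: compound added about 3h40 before a 20 min TNFalpha stimulation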
Write no unit; give the number alone.

Before answering, review these 2 worked examples.
{"columns": ["compound", "obs-value"],
 "data": [
  ["COCCN1C(=O)C(=O)/C(=C(/O)c2cccc(S(=O)(=O)N(C)C)c2)C12C(=O)N(C)c1ccccc12 (stereo not drawn)", 584],
  ["CCC(Sc1ccc(C(=O)O)cc1)C(=O)O (stereo not drawn)", 319]
]}

QUERY: cell count for Cc1ccc(S(=O)(=O)NCC2CCC(C(=O)NCCCN3CCOCC3)CC2)cc1 (stereo not drawn) ?
RESULT: 305

QUERY: cell count for Cc1ncoc1C(=O)Nc1cccc(Cl)c1C ?
RESULT: 540

QUERY: cell count for CC(C(=O)NCc1cccnc1)N1C(=O)c2ccccc2C1=O (stereo not drawn) ?
RESULT: 783

QUERY: cell count for COCCn1c(=O)[nH]c2cc(C(=O)NCc3cccnc3)ccc2c1=O ?
RESULT: 744

QUERY: cell count for Cc1cc(NC(=O)CSc2nnc(C3CC3)n2C)no1 ?
RESULT: 296

QUERY: cell count for O=C(c1ccco1)N1CCN(c2c(-c3ccccc3)c3cc(Cl)ccc3[nH]c2=O)CC1 ?
RESULT: 603

----------
molecular target: Muscarinic acetylcholine receptor M4 (Homo sapiens); test: M4-linked GIRK flux change, two-sided – cell-based, HEK293 M4/GIRK, thallium flux, BTC-AM, M4 allosteric agonist project, primary screen (AID 625); details: at 10 µM, actives lie on both sides;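 also: thallium influx through GIRK channels coupled to M4 in HEK293 cells with BTC-AM dye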
The recorded fluorescence slope of each item maps onto one of these classes: label 0 (below 0.004), label 1 (0.004 to below 0.006), label 2 (0.006 or more)

{"columns": ["molecule", "classification"],
 "data": [
  ["O=C(COC(=O)Cc1cccc(C(F)(F)F)c1)NCC1CCCO1 (stereo not given)", "label 1"],
  ["COC(=O)c1cc(O)c(OCc2ccccc2)c(O)c1", "label 1"],
  ["CCOC(=O)C1CCN(Cc2ccc(C(=O)OC)cc2)CC1", "label 1"],
  ["CCC(=O)/C=C1\\Sc2ccc(OC)cc2N1CCO", "label 2"],
  ["CCOC(=O)c1sc2ncn(/N=C/N(C)C)c(=O)c2c1C", "label 1"]
]}

QUERY: Band of CC(=O)c1cccc(NC(=O)N2CCCC2C(=O)NCc2ccc(C)cc2)c1 (stereo not given) ?
RESULT: label 2

QUERY: Band of Cc1cc(-c2ccccc2)c2c3c(cn2n1)c(=O)n(C)c(=O)n3C ?
RESULT: label 0

QUERY: Band of CSc1nnc2c3ccccc3n(CCc3ccccc3)c2n1 ?
RESULT: label 1

QUERY: Band of Cc1ccccc1CN1CCN(CC(=O)NCc2ccco2)C1=O ?
RESULT: label 2

QUERY: Band of C=CCOc1cccc(C2/C(=C(\O)c3ccc(F)cc3)C(=O)C(=O)N2CCN(C)C)c1 (stereo not given) ?
RESULT: label 0

QUERY: Band of O=C(COC(=O)C1(c2ccccc2F)CCCC1)NC1CCS(=O)(=O)C1 (stereo not given) ?
RESULT: label 2

QUERY: Band of CCNc1nc(NC(C)C)nc(N(C#N)CCOc2ccc(Cl)cc2Cl)n1 ?
RESULT: label 2

QUERY: Band of O=C(Nc1ccc(N2CCCC2=O)cc1)c1cccc(F)c1 ?
RESULT: label 1

QUERY: Band of Cc1nc2ccccc2c(=O)n1NC(=O)c1ccc(F)cc1Cl ?
RESULT: label 1

QUERY: Band of CCN(CC)CCCN(Cc1cc2cc(OC)ccc2[nH]c1=O)C(=O)Nc1ccccc1 ?
RESULT: label 2

These measurements were taken from PubChem BioAssay.
